Target: T1, cynomolgus monkey 5T4 antigen (cynomolgus monkey, UniProt Q4R8Y9 35-420)
T1 construct: whole, on cells; also called cyno 5T4
T1 sequence (looked up): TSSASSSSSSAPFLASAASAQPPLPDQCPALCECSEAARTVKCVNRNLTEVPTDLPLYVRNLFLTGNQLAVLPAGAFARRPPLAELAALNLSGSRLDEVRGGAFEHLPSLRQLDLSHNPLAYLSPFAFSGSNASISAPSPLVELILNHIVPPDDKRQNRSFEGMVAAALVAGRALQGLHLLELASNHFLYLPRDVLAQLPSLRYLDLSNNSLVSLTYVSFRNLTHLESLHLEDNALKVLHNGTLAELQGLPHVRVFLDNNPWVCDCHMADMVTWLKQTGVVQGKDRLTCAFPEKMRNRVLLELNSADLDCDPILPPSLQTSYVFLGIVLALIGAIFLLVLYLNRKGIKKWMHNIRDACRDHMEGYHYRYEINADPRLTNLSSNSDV
Assay: flow cytometry, CHOZN cells expressing cyno 5T4

- Binder: "chimeric anti-5T4 monoclonal antibody 835 (antibody, human IgG1, V domains shown) VH: QSVEESGGRLVTPGTPLTLTCTVSGIDLSSGAMGWVRQAPGKGLEWIGLISSSPITYYANWARGRFTISKTSTTVDLKITSPTTADTATYFCARGYDDYGEIWFNIWGPGTLVTVSL VL: AIEMTQSPPSLSASVGETVRIRCLAGEDIYSSISWYQQKPGKPPTLLIYGASNLESGVPPRFSGSGSGTDYTLTIGGVQAEDAATYYCLGGWSYSSSLTFGAGTKVEIK"
  Output Unit: "µg/mL"
  EC50: 0.18
- Binder: "chimeric anti-5T4 monoclonal antibody 908 (antibody, human IgG1, V domains shown) VH: QSVEESGGRLVTPGTPLTLTCTVSGFSLSNFAMSWVRQAPGKGLEWIGIINGYGSIYYATWAKGRFTISKTSTTVDLKITSPTTEDTATYFCARGDAGRTYNHYFNIWGPGTLVTVSL VL: DVVMTQTPASVEAAVGGTVTIKCQASQSISSWLSWYQQKPGQRPKLLIYAASNLASGVPSRFKGSGSGTQFTLTISDLESDDAATYYCQQGYTSYNVDNAFGGGTEVVVK"
  Output Unit: "µg/mL"
  EC50: 0.24
- Binder: "chimeric anti-5T4 monoclonal antibody 789 (antibody, human IgG1, V domains shown, also called clone 789) VH: QSVEESGGRLVTPGTPLTLTCTASGFSLSSYWMSWVRQAPGKGLEWIGIIAGRGSTYYASWAKGRCTISKTSTTVDLKITSPTTEDTAAYFCARVSSIYYTFNLWGQGTLVTVSS VL: AQVLTQTPSSVSAAVGGTVTINCQSSQSVYSNNELSWYQQKPGQPPKLLIYYASTLASGVPSRFKGSGSGTQFTLTISGVQSDDAATYYCQGSYYSGSGWYYAFGGGTEVVVK"
  Output Unit: "µg/mL"
  EC50: 0.15
- Binder: "chimeric anti-5T4 monoclonal antibody 828 (antibody, human IgG1, V domains shown) VH: QSVEESGGRLVTPGTPLTLTCTVSEIDLSTYAMSWVRQAPGKGLEWIGIISAGGSAYYASWAKGRFTISRTSTTVDLKMTSLTTEDTATYFCARGAAYAGYTYGFSFFDIWGPGTLVTVSL VL: DIVMTQTPSSVSAAVGGTVTINCQASQNIYSNLAWYQQKPGQRPKLLIYGASNLESGVPSRFKGSGSGTEYTLTISDLESDDAATYYCQSIDYGNNYLGSFGGGTEVVVK"
  Output Unit: "µg/mL"
  EC50: 0.82
- Binder: "chimeric anti-5T4 monoclonal antibody 811 (antibody, human IgG1, V domains shown) VH: QSVEESGGRLVTPGTSLTLTCTASGFSLSTYAMIWVRQAPGKGLEWIGIINSSGYTYYANWAKGRFTISKTSTTVDLKITSPTTEDTATYFCARGNAGISYDVSFNLWGQGTLVTVSS VL: AYDMTQTPASVEAGVGGTVTINCQASESISSWLAWYQQKPGQPPNLLIYEASKLASGVPSRFSGSGSGTEFTLTISGVESADAATYYCQQGWTSSNIDNAFGGGTEVVVK"
  Output Unit: "µg/mL"
  EC50: 0.25
